- System: MDA-MB-468 breast
- assay overview: NCI-60 one-dose screen, 48 h
- assay conditions: 10 µM unless noted
The panel holds about 83,000 compounds, 20% with a hit somewhere; the sample as a whole holds those more often. Activity calls are given as the source filed them. Rule for the calls: active = growth percent below 10; inactive = the rest.
Respond using exactly one of the listed classes: active, inactive

Reference set (4 entries):
compound: O=C1Nc2ccccc2SC1c1ccccc1Cl (stereo not given)
label class: inactive
--
compound: O=S(=O)(c1cccc(NC2=Nc3cccc4cccc2c34)c1)N1CCCC1
label class: inactive
--
compound: COc1cc(C(=O)/C=C/c2c(-c3cccs3)nc3sc(C)cn23)cc(OC)c1OC
label class: active
--
compound: COc1ccc(-c2cn[nH]c2-c2cc(OC)c3c(c2)OCCO3)cc1
label class: active

Consider the additional compound presented here.
# input What did this assay record as the result for OCC1OC(n2ccc3c(NO)ncnc32)C(O)C1O (stereo not given) ?
# output active

---

- Test system: SK-OV-3 ovarian
- assay overview: NCI-60 one-dose screen, 48 h (100 = growth as untreated, 0 = no growth, -100 = all killed)
- assay conditions: 10 µM
The panel holds about 83,000 compounds, 20% with a hit somewhere; the sample as a whole holds those more often.
Returns one of 1 or 0; 1 when growth is >= 90%.

compound: Cc1ccc2sc3c(c2c1)Oc1nc[nH]c(=O)c1C3c1cccc(F)c1 (stereo unspecified)
label class: 1
//
compound: O=C(c1ccccc1)c1ccc2nc(-c3ccccc3Br)[nH]c2c1
label class: 0

# input Record CCOC(=O)c1ccc(NC(=O)CSC(CC(=O)c2sc(Nc3ccccn3)nc2C)c2ccccc2F)cc1 (stereo unspecified) ; criterion: growth no lower than 90%. Met?
# output 0

# input Same thing, different compound: `O=C(Nc1ccc(OCc2ccc(Cl)cc2)cc1)Nc1ccc(Cl)c(C(F)(F)F)c1`
# output 0

---

# growth annotations
- Test system: MDA-MB-468 breast
- assay overview: NCI-60 one-dose screen, 48 h (100 = growth as untreated, 0 = no growth, -100 = all killed)
- assay conditions: 10 µM unless noted
About 83,000 compounds went through this panel and 20% of them were active in at least one assay; those are over-represented in the sample as a whole.
Numbers only here, please. The scale is %.

Consider the following illustrative entries.
compound: CC(C)CCC[C@@H](C)[C@H]1CC[C@H]2[C@@H]3CC=C4N(c5ccccc5)C(=O)CC[C@]4(C)[C@H]3CC[C@]12C
growth / %: 96.4
//
compound: CC1=C(SCCC(=O)OC(C[Se]C2=C(C)C(=O)c3ccccc3C2=O)C(=O)NCCCCCC(=O)OCc2ccccc2)C(=O)c2ccccc2C1=O (stereo unspecified)
growth / %: 30.5
//
compound: CCCCCCCCCCC(C[N+](C)(C)C/C=C/c1ccccc1)C(O)c1ccccc1 (stereo unspecified)
growth / %: -69.4
//
compound: CCCCCCCCCCCCSC1=CC(=O)C=CC1=O
growth / %: 82.8
//
compound: O=C1Cc2cc(O)ccc2O1
growth / %: 103

# input Which growth is reported for this compound? `O=C(NC(=S)NNC(=S)NNc1ccccc1)c1ccccc1`
# output 83.7

# input Same thing, different compound: `C/C(=N\O)c1ccc(Cl)cc1`
# output 108

---

- System: MDA-MB-468 breast
- assay overview: NCI-60 one-dose screen, 48 h (100 = growth as untreated, 0 = no growth, -100 = all killed)
- assay conditions: 10 µM unless noted
About 83,000 compounds went through this panel and 20% of them were active in at least one assay; those are over-represented in the sample as a whole.
# growth annotations
Numbers only here, please. The scale is %.

Consider the following illustrative entries.
compound: COc1cc(N2C(=O)[C@H](c3ccccc3)C2c2ccc(SC)cc2)cc(OC)c1OC (stereo not given in full)
units: %
growth: -9.99
--
compound: CC(=C(c1ccc(OCCCN(C)C)cc1)c1ccc(OCCCN(C)C)cc1)c1ccc(Cl)cc1
units: %
growth: 80
--
compound: CC1(C)N=C(N)N=C(N)N1c1cccc(CN)c1
units: %
growth: 84.8
--
compound: COc1ccc(/C=C/C(=O)Nc2ccc(-c3nc4ccc(F)cc4s3)cc2)cc1
units: %
growth: -12.9

Here's the next entry for you.
# input Give growth (MDA-MB-468 breast) of the following compound: `COc1ccc2c(c1)nc(N)c1c3ccccc3cn21`
# output 58.5

---

- Test system: MDA-MB-468 breast
- assay overview: NCI-60 one-dose screen, 48 h
- assay conditions: 10 µM unless noted
About 83,000 compounds went through this panel and 20% of them were active in at least one assay; those are over-represented in the sample as a whole. Calls of active or inactive are those of the source. Rule for the calls: active = growth percent below 10; inactive = the rest.
Respond using exactly one of the listed classes: 1 (yes) (active), 0 (no) (inactive)

Reference set (2 entries):
compound: Clc1ccc(CSc2nnc(-c3ccc(Cl)cc3)n2-c2ccccc2)cc1
label class: 0 (no)
//
compound: CSc1ccc(/C(=N/N=C(N)N)c2ccccc2)cc1
label class: 0 (no)

# input What did this assay record as the result for `Cn1ccnc1C(=O)/C=C/c1ccc(NC(=O)Nc2ccc(F)cc2)cc1` ?
# output 1 (yes)

# input Same thing, different compound: `C=C(C)[C@@H]1CC[C@]2(C(=O)N[C@H](CO)Cc3ccccc3)CC[C@]3(C)[C@H](CC[C@@H]4[C@@]5(C)CCCNC(C)(C)[C@@H]5CC[C@]43C)[C@@H]12`
# output 1 (yes)

# input Same thing, different compound: `Cc1ccc(-c2cc3nc(C(Cl)Cl)nc(C)n3n2)cc1`
# output 0 (no)

# input Same thing, different compound: `CC(C)(c1ccccc1)c1cc(O)c(C(C)(C)c2ccccc2)cc1O`
# output 0 (no)

# input Same thing, different compound: `COc1cc(C(=O)/C=C/c2cc(C(=O)c3cc(OC)c(OC)c(OC)c3)ccc2OC)ccc1N`
# output 1 (yes)

# input Same thing, different compound: `Clc1ccc2[nH]cc(-c3nn4cc(-c5ccncc5)nc4s3)c2c1`
# output 0 (no)

# input Same thing, different compound: `Cn1c([N+](=O)[O-])cnc1C=C1C(=O)c2ccccc2C1=O`
# output 0 (no)

# input Same thing, different compound: `CCCCCCCC/C=C\CCCCCCCCOc1ccc(CC(=O)NCC[N+](C)(C)C)cc1`
# output 0 (no)

---

- Test system: MDA-MB-468 breast
- assay overview: NCI-60 one-dose screen, 48 h
- assay conditions: 10 µM unless noted
Compounds without any hit were thinned out: in the full panel of roughly 83,000, 20% have a hit. The source made the active and inactive calls. How the source made its calls: active means growth percent below 10; inactive means the rest.
Respond using exactly one of the listed classes: true (1) = active, false (0) = inactive

Reference set (2 entries):
smiles entry: Clc1ccc([C@@H]2C[C@@H]3Cc4cc(Br)c5ccccc5c4N2O3)c(Cl)c1
target: MDA-MB-468 breast
label class: false (0)
--
smiles entry: O=C1c2ccccc2C(=O)c2c(O)c(Cl)cc(O)c21
target: MDA-MB-468 breast
label class: true (1)

# input What did this assay record as the result for `O=[N+]([O-])c1c(Cl)ncnc1Cl` ?
# output false (0)

# input Same thing, different compound: `Nc1nc(Nc2ccc(OCc3cccc(F)c3)cc2)c2c(n1)[nH]c1ccc(O)cc12`
# output true (1)

# input Same thing, different compound: `C=CCn1c(SCC(=O)Nc2ccc(C(=O)/C=C/c3cc(OC)c(OC)c(OC)c3)cc2)nnc1-c1cc(OC)c(OC)c(OC)c1`
# output false (0)

---

- Test system: MDA-MB-468 breast
- assay overview: NCI-60 one-dose screen, 48 h
- assay conditions: 10 µM unless noted
This is part of a sample that, as a whole, favours compounds with a hit. Of some 83,000 tested, about 20% had one in any assay. Activity calls are given as the source filed them. Rule for the calls: active = growth percent below 10; inactive = the rest.
Respond using exactly one of the listed classes: y = active, n = inactive

Reference set (8 entries):
compound: CC(C)(C)c1[nH]nc2c1C(c1cc3ccccc3[nH]c1=O)Nc1cc(C(=O)OCc3ccccc3)ccc1N2 (stereo not drawn)
label class: n
//
compound: CCOC(=O)c1c(C(F)(F)F)n([O-])c2ccc(Cl)cc2[n+]1=O
label class: y
//
compound: CCCCCN1C=C/C(=C\C(=O)N(C)c2cccc3ccccc23)c2ccccc21
label class: n
//
compound: CCCCCCCCCC[N+](C)(C)C
label class: y
//
compound: COc1ccc2cc1Oc1ccc(cc1)C[C@H]1c3c(cc4c(c3Oc3cc5c(cc3OC)CCN(C)[C@@H]5C2)OCO4)CCN1C
label class: y
//
compound: CCN(CC)CCCOC(=O)Nc1ccccc1Cl
label class: n
//
compound: COc1c(C2CC(=O)Nc3c2c(C)nn3-c2nc3ccccc3[nH]2)cc2c(c1OC)OCO2 (stereo not drawn)
label class: n
//
compound: COc1ccc(-c2nc(-c3cc(OC)cc(OC)c3)[nH]c2-c2ccc(OC)cc2)cc1
label class: n

# input What did this assay record as the result for `N#Cc1c(-c2ccccc2)cc(-c2ccccc2)n(CC(=O)O)c1=O` ?
# output n

# input Same thing, different compound: `CCCC(=O)Oc1ccc2ccccc2c1`
# output n

# input Same thing, different compound: C#Cc1nc(C2=C(C)C(O)/C(=N/O)C2)cs1 (stereo not drawn)
# output n

# input Same thing, different compound: `O=C(Nc1ccc(I)cc1)c1cc([N+](=O)[O-])ccc1O`
# output y

# input Same thing, different compound: `CC(C)(O)c1cn(CCCCN2C(=O)C(=O)c3ccccc32)nn1`
# output n

# input Same thing, different compound: `Cc1cc(=O)n2nnc3c4ccccc4ccc3n12`
# output n

# input Same thing, different compound: `Nc1ccc(N)c2c1C(=O)c1cccc([N+](=O)[O-])c1C2=O`
# output n

# input Same thing, different compound: CN1CCN(/C=C2\CC(C(=O)NCc3ccc(Cl)cc3Cl)NC2=O)CC1 (stereo not drawn)
# output n

# input Same thing, different compound: `COc1ccc2c(c1)C(=O)/C(=C/c1ccc(O)cc1)O2`
# output y

# input Same thing, different compound: `c1cnc2c(-c3nc4ccc5[nH]ncc5c4c4c3CCCC4)c[nH]c2c1`
# output n

# input Same thing, different compound: `Cc1ccc(-c2nnc(SCc3ccc(O)c4ncccc34)o2)cc1`
# output n

# input Same thing, different compound: `CC(C)(C)c1ccc(S(=O)(=O)N[C@H]2CC[C@H]3[C@@H]4CCc5cc(OS(=O)(=O)O)ccc5[C@H]4CC[C@]23C)cc1`
# output n

# input Same thing, different compound: NC(CSC(c1ccccc1)(c1ccccc1)c1ccc(F)cc1)C(=O)O (stereo not drawn)
# output y

# input Same thing, different compound: COc1cc(C2CC(=O)Nc3n[nH]c(-c4ccccc4)c32)cc(OC)c1OC (stereo not drawn)
# output n

# input Same thing, different compound: `Cc1ccc(S(=O)(=O)Oc2ccc(NC(=O)c3ccc(Cl)cc3)cc2)cc1`
# output n
